Target: Glucocorticoid receptor (Homo sapiens) (UniProt P04150)
Sequence (P04150 whole entry, looked up): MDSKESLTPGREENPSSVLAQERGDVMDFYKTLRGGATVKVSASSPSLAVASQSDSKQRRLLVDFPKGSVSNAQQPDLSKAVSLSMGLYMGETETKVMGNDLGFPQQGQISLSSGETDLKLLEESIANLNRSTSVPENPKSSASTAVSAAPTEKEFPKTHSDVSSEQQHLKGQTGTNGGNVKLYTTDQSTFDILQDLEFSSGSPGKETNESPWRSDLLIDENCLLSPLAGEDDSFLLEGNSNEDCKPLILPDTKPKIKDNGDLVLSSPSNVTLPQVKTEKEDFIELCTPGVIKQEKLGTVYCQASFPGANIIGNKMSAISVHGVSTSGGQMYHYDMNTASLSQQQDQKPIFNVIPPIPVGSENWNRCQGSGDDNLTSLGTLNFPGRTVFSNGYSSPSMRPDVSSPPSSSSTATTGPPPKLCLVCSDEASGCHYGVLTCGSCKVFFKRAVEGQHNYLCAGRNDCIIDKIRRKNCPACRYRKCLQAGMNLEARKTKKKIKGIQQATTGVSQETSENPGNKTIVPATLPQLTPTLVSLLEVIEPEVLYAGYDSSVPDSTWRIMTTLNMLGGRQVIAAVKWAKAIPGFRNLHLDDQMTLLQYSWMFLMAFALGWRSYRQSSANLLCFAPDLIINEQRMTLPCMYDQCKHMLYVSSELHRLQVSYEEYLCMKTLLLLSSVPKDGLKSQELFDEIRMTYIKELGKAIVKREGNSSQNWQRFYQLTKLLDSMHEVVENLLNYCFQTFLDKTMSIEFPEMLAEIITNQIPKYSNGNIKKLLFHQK
Assay: GR-GFP Redistribution (AID 450)
Conditions: U2OS GR-GFP nuclear translocation, laser cytometry, 2 h
Activity calls are given as the source filed them.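 Rule for the calls: active = compounds whose dose series gives a full or clear partial fitted curve of increased nuclear translocation; inconclusive = weak partial curve or effect only at the top dose; inactive = no dose-dependent translocation response.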
Outcome field: choose from active, inactive

>  <Input Smiles>
Cc1ccc([C@@H](O)c2cnc(C)n2Cc2ccccc2)cc1

>  <Assigned Label>
inactive

$$$$
>  <Input Smiles>
N[C@@]1(C(=O)O)CCC[C@@H]1C(=O)O

>  <Assigned Label>
inactive

$$$$
>  <Input Smiles>
O=C(Nc1c[nH]c(=O)[nH]c1=O)Oc1ccccc1

>  <Assigned Label>
inactive

$$$$

## Task # fetch the recorded call for `O=C(CC1(O)CCCCC1)OC1CCCC1` here
## Result inactive

## Task # fetch the recorded call for `O=C1c2cccc([N+](=O)[O-])c2C(=O)N1c1ncn[nH]1` here
## Result inactive

## Task # fetch the recorded call for `Nc1nc2c(nc(Br)n2[C@@H]2O[C@H]3COP(=O)(O)O[C@@H]3[C@H]2O)c(=O)[nH]1` here
## Result active

## Task # fetch the recorded call for `NC([N-]/N=C/c1ccccn1)=[S]=[Fe].O=S(=O)(O)O` here
## Result inactive

## Task # fetch the recorded call for `O=C(O)[C@@H]1CCN(Cc2oc(CO)cc(=O)c2O)C1` here
## Result inactive

## Task # fetch the recorded call for `Oc1ccc2ccccc2c1C=NCc1c(O)ccc2ccccc12` here
## Result inactive

## Task # fetch the recorded call for `NC(=O)N/N=C1\CC[C@H](O)C[C@@H]1CC(=O)O` here
## Result inactive

## Task # fetch the recorded call for `O=CNc1ncn[nH]1` here
## Result inactive

## Task # fetch the recorded call for `O=C(O)C[C@H](Cc1ccccc1)C(=O)O` here
## Result inactive

## Task # fetch the recorded call for `NCCNc1ncnc2ccc(Cl)cc12` here
## Result inactive

* * *

Test: Cell Viability - LYMP2-008 (AID 980); note: nearly all actives have a fitted effect of over 60% in size
Conditions: LYMP2-008 lymphoblastoid cell viability, qHTS; series mostly up to 92.2 µM
Results filed as inconclusive are left out. The source made the active and inactive calls. The call rests on the fitted dose curve; in most records, active means well fitted cell-killing curve with a large enough effect; inconclusive means small, poorly fitted or top-dose-only effect; inactive means flat fitted curve, though single readings scatter.
Outcome field: choose from active, inactive

Examples with answers:
>  <Molecule>
C/C=C/C=C/C=O

>  <Assigned Label>
active

$$$$
>  <Molecule>
Oc1cc2c(cc1O)[C@H]1c3ccc(O)c(O)c3OC[C@@]1(O)C2

>  <Assigned Label>
active

$$$$

## Task # fetch the recorded call for CCCCC(CC)COC(=O)COc1ccc(Cl)cc1Cl (configuration not stated) here
## Result inactive

## Task # fetch the recorded call for `Cc1ccc(N)cc1[N+](=O)[O-]` here
## Result inactive

## Task # fetch the recorded call for `c1ccc(SCCSc2ccccc2)cc1` here
## Result inactive

## Task # fetch the recorded call for `O=c1[nH]ncc2ccccc12` here
## Result inactive

## Task # fetch the recorded call for `c1ccc(COCc2ccccc2)cc1` here
## Result inactive

* * *

Test: AP1 Signaling Pathway (AID 357);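 note: ME-180 reporter cells stimulated with EGF at its EC50 level; % is set by controls: 0 for no effect and ±100 for the full control effect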
Conditions: ME-180 (cervical carcinoma) AP-1-bla reporter, EGF-induced, beta-lactamase ratio, 5 h; at 7.69 µM (top of the series) unless noted
Records with an inconclusive call do not appear. Active and inactive are the calls of the source. Calls follow the shape of the dose curve; as a rule, active = well fitted curve in either direction with a large enough effect (not every such curve was filed as active); inconclusive = small, poorly fitted or top-dose-only effect, or another doubt; inactive = flat fitted curve, though single readings scatter.
Endpoint: activity change, negative = inhibition

Worked cases, answers included:
>  <Input Smiles>
Cn1c(N)c(N=Nc2ccc(S(N)(=O)=O)cc2)c(=O)n(C)c1=O

>  <activity change, negative = inhibition>
12.7% (inactive)

$$$$
>  <Input Smiles>
O=C1c2ccccc2C(=O)N1CCCSc1ccccc1

>  <activity change, negative = inhibition>
-13.4% (inactive)

$$$$
>  <Input Smiles>
CN(CC(=O)O)Cc1c(O)c(Cl)cc(Cl)c1Cl

>  <activity change, negative = inhibition>
-1.4% (inactive)

$$$$
>  <Input Smiles>
O=C1c2ccccc2C(=O)N1C1(C(=O)NC2(C(=O)O)CCCC2)CCCC1

>  <activity change, negative = inhibition>
0.0237% (inactive)

$$$$

Hey, can you go through the list below and give me activity change, negative = inhibition for every item?
1. Cc1[nH]c2c(C)ccc(C)c2c1CC(=O)O
2. N[C@H](CS(=O)O)C(=O)O
3. CCOC(=O)Cn1c(C(F)(F)F)nc2nc(Cl)c(Cl)nc21

## Result
-6.88% (inactive)
9.5% [at 38 µM] (inactive)
6.84% (inactive)

Hey, can you go through the list below and give me activity change, negative = inhibition for every item?
1. CS[C@]12C(=O)C[C@]3(C)[C@@H](CC[C@@]3(O)C(=O)CO)[C@@H]1CCC1=CC(=O)CC[C@]12C
2. O=C1c2cc([N+](=O)[O-])ccc2-c2ccc3c4ccc5c6c(ccc(c7ccc1c2c73)c64)C(=O)c1cc([N+](=O)[O-])ccc1-5
3. c1ccc2c(c1)-c1nc3ccccc3cc1[C@H]2N1CCOCC1
4. c1ccc2c(c1)C(=Nc1ccc(N=C3c4ccccc4-c4ccccc43)cc1)c1ccccc1-2
5. CN(CCC(=O)O)S(=O)(=O)c1ccccc1
6. COC(=O)[C@@H]1[C@@H]2C[C@H]3c4[nH]c5ccccc5c4CCN3C[C@@H]2CC[C@@H]1OS(=O)(=O)O
7. C[C@H]1[C@H](C)OC(=O)C[C@H](O)C[C@H](O)C[C@H](O)CC[C@H](O)[C@H](O)CC(=O)C[C@H](O)[C@H](C(=O)O)[C@H](O)C[C@H](O[C@@H]2O[C@@H](C)[C@H](O)[C@@H](N)[C@@H]2O)C=CC=CC=CC=CCCC=CC=C[C@@](C)(O)[C@H]1O

## Result
["0.905% (inactive)", "0.115% (inactive)", "-6.79% (inactive)", "-0.81% (inactive)", "-0.615% (inactive)", "1.46% (inactive)", "4.16% (inactive)"]

Hey, can you go through the list below and give me activity change, negative = inhibition for every item?
1. NS(=O)(=O)c1cc2c(cc1Cl)=NC(CCC(=O)O)=NS=2(=O)O
2. CSc1nc(C)cc(Nc2ccc(O)c(CN3CCOCC3)c2)n1

## Result
["-7.99% (inactive)", "-11.8% (inactive)"]

* * *

Kindly state activity change, negative = inhibition for each of the entries shown.
Assay: NFAT Signaling Pathway (AID 444);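 note: carbachol stimulus at about its EC50 of 1 µM final; % is set by controls: 0 for no effect and ±100 for the full control effect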
Conditions: Jurkat NFAT-bla M1, carbachol, beta-lactamase ratio, 5 h; at 7.69 µM (top of the series) unless noted
Results filed as inconclusive are left out.
Answers are plain numbers, in %.

Worked cases, answers included:
>  <Compound>
Cc1[nH]c2ccccc2c1-c1cc(-c2cc(-c3c(C)[nH]c4ccccc34)on2)no1

>  <Number>
-7.58

$$$$
>  <Compound>
CC(C)C[C@@H](N)C(=O)Nc1ccc2ccccc2c1

>  <Number>
8.34

$$$$
>  <Compound>
CC[C@@H]1CC(=O)N(SC[C@H](N)C(=O)O)C1=O

>  <Number>
12.4

$$$$
>  <Compound>
CN1CCN(c2ncc3nc(CCc4ccccc4)c(=O)n(CCC#N)c3n2)CC1

>  <Number>
-8.66

$$$$
>  <Compound>
O=C1NC(=O)[C@@](Cc2ccccc2)(c2cccnc2)N1

>  <Number>
9.84

$$$$
>  <Compound>
Cc1c(Cl)c(S(N)(=O)=O)cc(S(N)(=O)=O)c1NC(=O)c1ccc(Cl)cc1

>  <Number>
5.51

$$$$
>  <Compound>
Cc1nc(N)nc2ccccc12

>  <Number>
0.491

$$$$
>  <Compound>
c1cncc(CNc2ncn[nH]2)c1

>  <Number>
15.3

$$$$

Hey, can you go through the list below and give me activity change, negative = inhibition for every item?
1. O=C(O)c1ccccc1CN1CCC[C@@H](C(=O)O)C1
2. O=C(O)c1c(Cl)c(Cl)c(Cl)c(Cl)c1C(=O)Nc1ccc2cn[nH]c2c1

## Result
[12.7, 4.49]

Hey, can you go through the list below and give me activity change, negative = inhibition for every item?
1. O=C(O)C12CC3(C(=O)O)CC(C(=O)O)(CC(C(=O)O)(C1)C3=O)C2=O
2. Nc1nc(SCC(=O)O)[nH]c(=O)c1N

## Result
1. 6.84
2. 10.6

Hey, can you go through the list below and give me activity change, negative = inhibition for every item?
1. OCCCN=C1CCCCC1
2. Clc1nc(NCCc2ccccc2)c2ncn(-c3ccccc3)c2n1
3. O=C1c2cccc(O)c2C(=O)c2c(O[C@@H]3O[C@H](CO)[C@@H](O)[C@H](O)[C@@H]3O)cccc21
4. N=C(N)C(N=Nc1ccccc1)C(=N)N (stereo not drawn)

## Result
1: 7.24; 2: -0.663; 3: 5.22; 4: 3.59

Hey, can you go through the list below and give me activity change, negative = inhibition for every item?
1. Cc1ccc(-c2nnc(-c3ccc4ccccc4c3)o2)cc1
2. O=S(=O)(c1cccc(C(F)(F)F)c1)N1c2ccccc2-n2cccc2[C@H]1c1cccnc1

## Result
1. -21
2. -6.39

Where do the numbers come from? From PubChem BioAssay (NCATS).
